B1: RIPK4 (parent)
chain: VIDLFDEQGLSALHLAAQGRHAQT

variants of: B1; assay: protein stability index of a GFP-peptide fusion (GPS, HEK-293T) (PSI 1-6); higher = more stable; conditions: c terminus: a fixed tail appended;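 further: lentivirally expressed fusions sorted by FACS into six bins by GFP to DsRed ratio, PSI derived from sequencing read proportions per bin multiplied by bin number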
measurement.name: protein stability index

>>> print(df.to_string())
    mutation_string  observed_result
 0              I2Q             3.76
 1             R20V             2.54
 2              Q8L             1.66
 3              D6M             1.97
 4             L15R             2.94
 5              L4M             3.11
 6              G9S             2.68
 7              G9Q             2.75
 8             G19F             1.91
 9              D6I             4.12
10              L4I             2.86
11             Q18L             1.85
12              Q8C             1.76
13             A16N             3.46
14             A22D             3.03
15             L10K             3.31
16              L4H             3.81
17             H14S             2.55
18             R20Q             3.29
19             L10V             2.97
20             H21C             2.89
21              V1W             2.76
22             A22H             2.87
23              G9R              2.4
24             Q23I             2.16
25             A22Q             3.15
26             A16S             3.15
27             L15K             3.39
28             A17C             2.54
29              D3S             2.69
30             A12Y             2.54
31              I2D             4.21
32              I2H             4.22
33              G9H             2.77
34              F5Y             3.22
35             T24I             2.47
36             A17Q             2.98
37              Q8T             2.65
38             L13W             2.82
39             A16V             2.01
40             A12M             2.46
41             H14D              3.6
42             H14C              2.1
43             L13I             2.75
44             G19Y             2.66
45             T24C             2.57
46             R20S             3.26
47             Q18H             2.18
48              D3T             2.17
49              V1I             2.43
50             G19E             3.37
51             A22G             2.73
52             A16I             2.35
53             S11A             2.79
54             L10T             3.08
55             L15F             2.41
56              D3R             2.34
57              G9E             3.13
58             Q23V             2.53
59             L13S             3.58
60              Q8S             2.65
61              G9P              3.2
62             L13M             3.66
63             A17D             3.84
64             L15W             2.26
65              E7V             2.32
66             S11F             2.43
67              I2Y             2.97
68              D3C             2.25
69             Q23Y             2.06
70             Q18I             2.51
71             A22M              2.4
72             A12E             3.54
73             G19W             1.99
74              Q8K             2.58
75             T24W             1.86
76              Q8E             2.98
77              V1L              2.7
78              D6V             3.75
79             R20W             2.02
80             A12I             1.91
81             G19R             2.44
82             R20Y             2.06
83             L15E             3.47
84              G9T             2.25
85              F5H              3.9
86             A17V             2.92
87             A17M             1.99
88             L10M             3.04
89             L13F             2.87
90             Q18E             3.19

Recorded values, source the supplement of paper PMC10567573.
